# TEST_PROTOCOL: small molecules captured by biotinylated probe aFGF10 – biochemical, small-molecule microarray, fluorescence 635/667, stem cell growth factor project, primary screen (AID 1071);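 note: score merges 667 nm spot intensity and signal to noise from triplicate slides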
# CONDITION_CONTEXT: higher = more signal
// n strictly below 0.3 in composite z-score; y otherwise

{"columns": ["COMPOUND", "LABEL_CLASS"],
 "data": [
  ["C=C(CCCC)/C(=C/C[C@H](OC(=O)c1ccncc1)c1ccc(OCCO)cc1)c1cnc2ccccc2c1", "y"],
  ["COC(=O)C(CC#Cc1ccc2c(c1)[C@]1(C(=O)N2)[C@H](C(=O)N2CCc3cc(OC)c(OC)cc3C2)[C@H]2C(=O)O[C@H](c3ccccc3)[C@H](c3ccccc3)N2[C@@H]1c1ccccc1OCCO)C(=O)OC", "y"],
  ["COC(=O)C1=CC(CCCO)=CC(c2cccs2)N(Cc2cc3c(cc2Br)OCO3)C=C1C(=O)OC (stereo not drawn)", "y"],
  ["C=CC1c2cc(O)c(OC)cc2CCN1C (stereo not drawn)", "n"],
  ["CC1=C([C@H](O)CCc2ccccc2)[C@H](CO)n2c(=O)n(-c3ccccc3)c(=O)n2C1", "n"],
  ["COc1ccc(C(=O)Nc2cccc(CN3C(=O)[C@@]4(O[C@@H](CC(=O)N5CCC[C@H]5CO)[C@H]([Si](C)(C)c5ccc(OC)cc5)[C@H]4C)c4ccccc43)c2)cc1", "n"],
  ["C=C(C)[C@@H]1CC=C(C(O)C2C=CC3C(=O)N(C)C(=O)C3N2Nc2ccc([N+](=O)[O-])cc2[N+](=O)[O-])CC1 (stereo partly drawn)", "y"],
  ["CCOC(=O)C1=C[C@@H](C(C)(C)C)N(S(=O)(=O)c2ccc(C)cc2)[C@H]1c1ccc(C#N)cc1", "y"],
  ["COc1ccc(C#Cc2ccc3c(c2)[C@]2(C(=O)N3)[C@H](C(=O)O)[C@H]3C(=O)O[C@H](c4ccccc4)[C@H](c4ccccc4)N3[C@@H]2c2ccccc2OCCO)cc1", "y"],
  ["COc1ccc(C(=O)Nc2ccc3c(c2)[C@@]2(O[C@H](CCO)[C@@H]([Si](C)(C)c4ccc(OC)cc4)[C@@H]2C)C(=O)N3Cc2ccccc2)cc1", "n"],
  ["COC(=O)[C@@]1(Cc2ccccc2)[C@H]2c3cc(C(=O)N4CCCC4)n(Cc4ccc(OC)c(OC)c4)c3C[C@H]2CN1C(=O)c1ccccc1", "y"],
  ["CC(C)C[C@@H]1NC(=O)[C@@H]2C[C@H](C(=O)NCCCCCCNC(=O)CS)[C@H](c3cccc(OCCO)c3)N2C1=O", "y"],
  ["C=CCOC(=O)[C@@H]1[C@H]2C(=O)O[C@H](c3ccccc3)[C@H](c3ccccc3)N2[C@H](c2ccc(OCCOC(=O)[C@H]3C[C@H]4C(=O)N5CCC[C@H]5C(=O)N4[C@H]3c3cccc(OCCO)c3)cc2)[C@@]12C(=O)Nc1ccc(I)cc12", "y"]
]}

###

# TEST_PROTOCOL: compounds binding Alexa647 anti-His antibody – biochemical, small-molecule microarray, 635 nm fluorescence, artefact control for SMM control protein annotation, primary screen (AID 1128);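 note: score merges feature fluorescence with signal-to-noise for each printed compound spot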
# CONDITION_CONTEXT: higher = more signal
// NO strictly below 0.5 in composite z-score; YES otherwise

{"columns": ["COMPOUND", "LABEL_CLASS"],
 "data": [
  ["[N-]=[N+]=Nc1ccccc1C[C@@]1(C(=O)NCc2ccccc2)N=C(c2ccc(OCCCO)cc2)O[C@@H]1c1ccccc1N=[N+]=[N-]", "YES"],
  ["O=C(NCc1ccc(F)cc1)[C@H]1C[C@H]2C(=O)N3CCC[C@H]3C(=O)N2[C@H]1c1ccc(O)cc1", "NO"],
  ["Cc1ccc(F)cc1S(=O)(=O)N[C@H]1CCN(Cc2ccc(OC(C)C)cc2)C1", "YES"],
  ["COc1cc(C(O)C2C=CC3C(=O)N(c4ccccc4)C(=O)C3N2Nc2ccccc2)cc(OC)c1OC (centres undefined)", "YES"],
  ["C=C(C)[C@@H]1CC=C(C(O)C2C=CC3C(=O)N(c4ccccc4)C(=O)C3N2Nc2ccc([N+](=O)[O-])cc2)CC1 (some centres undefined)", "YES"],
  ["COC(=O)C(CC#Cc1ccc2c(c1)[C@]1(C(=O)N2)[C@H](C(=O)NC[C@H](O)c2ccccc2)[C@H]2C(=O)O[C@H](c3ccccc3)[C@H](c3ccccc3)N2[C@@H]1c1ccccc1OCCO)C(=O)OC", "YES"],
  ["CN(C)C(=O)[C@@]1(Cc2ccccc2CN=[N+]=[N-])COC(c2ccc(OCCCO)cc2)=N1", "YES"],
  ["C=CCC(OC(C)=O)[C@@H]1[C@@H](N(Cc2cccc3ccccc23)C(=O)Cc2ccc(OC)cc2)c2cc(OCCCO)ccc2N1C(=O)Cc1ccc2ccccc2c1 (some centres undefined)", "NO"],
  ["CCN(CC)c1ccc(N2CC=CC34O[C@@H]5C=CCCOC(=O)C5[C@H]3C(=O)N(C(C)CO)[C@@H]4C2=O)cc1 (some centres undefined)", "YES"],
  ["COc1ccc(CCNC(=O)[C@@H]2c3ccccc3C(=O)N(Cc3ccccc3OC)[C@H]2c2ccc(CO)cc2)cc1", "YES"],
  ["CCCC=C(CCC)[C@@H](NC(=O)c1ccc(C(F)(F)F)cc1)c1ccc(C(F)(F)F)cc1", "YES"],
  ["COC(=O)[C@]1(Cc2ccccc2)N=C(c2ccc(OCCCO)cc2)O[C@@H]1c1ccccc1CN=[N+]=[N-]", "YES"],
  ["C=CCC(OC(C)=O)[C@@H]1[C@@H](N(Cc2cc3ccccc3o2)C(=O)Cc2ccc(OC)cc2)c2cc(OCCCO)ccc2N1C(=O)c1ccc2ccccc2n1 (some centres undefined)", "NO"],
  ["CCCCCCc1nc(-c2ccc(-c3ccc(Cl)c(Cl)c3)o2)cc2c1[Si](C(C)C)(C(C)C)OC2", "NO"],
  ["C=C(CCCC)C(=O)CC[C@H](OC(=O)c1ccccc1-c1ccccc1C(=O)O)c1ccc(OCCO)cc1", "NO"],
  ["CCCc1cc2c(n1CCc1ccc(Cl)cc1)C(C)C1CN(C(=O)c3ccccc3)C(C)(C(=O)OC)C21 (centres undefined)", "YES"],
  ["C=CCC(OC(C)=O)[C@@H]1[C@@H](N(Cc2ccc(-c3cccc(C(F)(F)F)c3)o2)C(=O)c2ccc(-c3ccccc3)cc2)c2cc(OCCCO)ccc2N1C(=O)c1ccc2ccccc2c1 (some centres undefined)", "NO"],
  ["C=CCNC(=O)[C@@H]1[C@H]2C(=O)O[C@H](c3ccccc3)[C@H](c3ccccc3)N2[C@H](c2ccc(OCCO)cc2)[C@@]12C(=O)Nc1ccc(C#CC3(O)CCCCCC3)cc12", "YES"],
  ["O=C(NCc1ccccc1)[C@@H]1c2ccccc2C(=O)N(Cc2ccc(OC(F)(F)F)cc2)[C@H]1c1ccc(CO)cc1", "YES"],
  ["COC(=O)c1cccc([C@H]2OC(=CC(=O)OC(C)C)C[C@@H](c3cccc(C(=O)OC)c3)O2)c1", "YES"],
  ["CN(C)CCCNC(=O)[C@@H]1c2ccccc2C(=O)N(Cc2ccccc2C(F)(F)F)[C@H]1c1ccc(CO)cc1", "NO"],
  ["O=C1C[C@@](C(=O)NCc2ccccc2)(c2ccc([N+](=O)[O-])cc2)[C@@H](c2ccc(CO)cc2)N1C1CCCCC1", "YES"],
  ["Cc1ccc(S[C@]2(C(=O)NCc3ccccc3)CC(=O)N(Cc3ccccc3C(F)(F)F)[C@@H]2c2ccc(CO)cc2)cc1", "NO"],
  ["O=C(NCc1ccccc1)[C@@H]1c2ccccc2C(=O)N(Cc2cc(C(F)(F)F)cc(C(F)(F)F)c2)[C@H]1c1ccc(CO)cc1", "YES"],
  ["C=C(COC)C(=O)CC[C@@H](OC(C)=O)c1ccccc1OCCO", "NO"],
  ["CC(C)NC(=O)[C@@H]1c2ccccc2C(=O)N(Cc2ccc(OC(F)(F)F)cc2)[C@H]1c1ccc(CO)cc1", "YES"],
  ["O=C1C[C@]2(c3ccc([N+](=O)[O-])cc3)C(=O)N(C3CC3)c3cc(CO)ccc3[C@H]2N1C1CCCCC1", "NO"],
  ["[N-]=[N+]=Nc1ccccc1[C@@H]1OC(c2ccc(OCCCO)cc2)=N[C@]1(CCS(=O)(=O)c1ccccc1)C(=O)NCC(O)CO (some centres undefined)", "YES"],
  ["COC(=O)C(CC#Cc1ccc2c(c1)[C@]1(C(=O)N2)[C@H](C(=O)N2CCc3cc(OC)c(OC)cc3C2)[C@H]2C(=O)O[C@H](c3ccccc3)[C@H](c3ccccc3)N2[C@@H]1c1ccccc1OCCO)C(=O)OC", "YES"]
]}

###

# TARGET_OF_ASSAY: Torsin-1A-interacting protein 1 (Homo sapiens)
# TEST_PROTOCOL: compound microarray binding of lysate hLAP1 – cell lysate, small-molecule microarray, COS7 lysate, 635/667 nm fluorescence, primary screen (AID 1116)
# CONDITION_CONTEXT: 635 nm fluorescence, higher = more signal

{"columns": ["COMPOUND", "TARGET_OF_ASSAY", "composite z-score"],
 "data": [
  ["COCCCNC(=O)[C@@]1(CCC(=O)OC(C)(C)C)COC(c2ccc(OCCCO)cc2)=N1", "Torsin-1A-interacting protein 1 (Homo sapiens)", 2.01],
  ["CC(C)C(O)C1C=CC2C(=O)NC(=O)C2N1Nc1ccccn1 (centres undefined)", "Torsin-1A-interacting protein 1 (Homo sapiens)", 0.325],
  ["O=C1C[C@]2(c3ccc([N+](=O)[O-])cc3)C(=O)N(C3CC3)c3cc(CO)ccc3[C@H]2N1C1CCCCC1", "Torsin-1A-interacting protein 1 (Homo sapiens)", -0.0456],
  ["C=CCOC(=O)[C@@H]1[C@H]2C(=O)O[C@H](c3ccccc3)[C@H](c3ccccc3)N2[C@H](c2ccc(OCCOC(=O)[C@H]3C[C@H]4C(=O)NCC(=O)N4[C@H]3c3cccc(OCCO)c3)cc2)[C@@]12C(=O)Nc1ccc(I)cc12", "Torsin-1A-interacting protein 1 (Homo sapiens)", 1.61],
  ["COC(=O)[C@@]1(Cc2ccccc2)[C@H]2c3cc(C(=O)N(C)C)n(Cc4ccc(C(F)(F)F)nc4)c3C[C@H]2CN1C(=O)c1ccccc1", "Torsin-1A-interacting protein 1 (Homo sapiens)", 1.91],
  ["CN(C)C(=O)[C@]1(Cc2ccccc2)N=C(c2ccc(OCCCO)cc2)O[C@@H]1c1ccccc1CN=[N+]=[N-]", "Torsin-1A-interacting protein 1 (Homo sapiens)", 1.62],
  ["C=CC[C@]1(C(=O)NCC(O)CO)COC(c2ccc(OCCCO)cc2)=N1 (some centres undefined)", "Torsin-1A-interacting protein 1 (Homo sapiens)", 1.53],
  ["C=C(C)[C@@H]1CC=C(C(O)C2C=CC3C(=O)N(c4ccccc4)C(=O)C3N2Nc2ccc([N+](=O)[O-])cc2)CC1 (some centres undefined)", "Torsin-1A-interacting protein 1 (Homo sapiens)", -0.151],
  ["COCCOC(=O)N1C(=O)[C@@]2(c3cc(C#CCC(C(=O)OC)C(=O)OC)ccc31)[C@H](c1ccc(O)cc1)N1[C@H](c3ccccc3)[C@H](c3ccccc3)OC(=O)[C@H]1[C@@H]2C(=O)Nc1nc2ccccc2s1", "Torsin-1A-interacting protein 1 (Homo sapiens)", 0.83],
  ["COc1ccc(C(O)C2C=CC3C(=O)N(c4ccccc4)C(=O)C3N2Nc2ccc(C#N)cc2)cc1OCc1ccccc1 (centres undefined)", "Torsin-1A-interacting protein 1 (Homo sapiens)", 2.54],
  ["COC(=O)[C@@]1(Cc2ccc(F)cc2)[C@H]2c3cc(C(=O)N4CCCC4)n(Cc4ccccn4)c3C[C@H]2CN1C(=O)c1ccccc1", "Torsin-1A-interacting protein 1 (Homo sapiens)", 1.33],
  ["CC(C)C(=C=CC[C@H](O)c1ccccc1OCCO)C[C@H](O)COCc1ccccc1", "Torsin-1A-interacting protein 1 (Homo sapiens)", -0.251],
  ["C=CCNC(=O)[C@H]1[C@@H]2C(=O)O[C@@H](c3ccccc3)[C@@H](c3ccccc3)N2[C@@H](c2ccc(OCCO)cc2)[C@]12C(=O)Nc1ccccc12", "Torsin-1A-interacting protein 1 (Homo sapiens)", 1.87],
  ["CC1CC/C=C\\[C@H]2OC34C=CCN(C(C)(C)C)C(=O)[C@H]3N(CCCO)C(=O)[C@@H]4C2C(=O)O1 (some centres undefined)", "Torsin-1A-interacting protein 1 (Homo sapiens)", 1.42]
]}
